- Test system: EKVX NSCLC
- ASSAY_METHOD_TEXT: NCI tumour cell line growth inhibition, 48 h
The following compounds are shown together with reported TGI values.

{"COMPOUND": "CC1(C)CC(=O)C(C(c2cccc(O)c2O)C2C(=O)CC(C)(C)CC2=O)C(=O)C1", "TGI": "> 100 µM"}
{"COMPOUND": "C=C1C(=O)OC2C[C@H](C)C3CC(=O)C(C)=C3CC12 (stereo partly drawn)", "TGI": "32.8 µM"}
{"COMPOUND": "Nc1ccc2cc(S(=O)(=O)O)cc(O)c2c1N=Nc1ccc(NC(=O)Nc2ccc(N=Nc3c(N)ccc4cc(S(=O)(=O)O)cc(O)c34)c(S(=O)(=O)O)c2)cc1S(=O)(=O)O", "TGI": "> 100 µM"}
{"COMPOUND": "CC1=NN(c2nc(N)nc(C(C)Sc3cc(Cl)c(C)cc3S(N)(=O)=O)n2)C(C)(C)C1 (stereo not drawn)", "TGI": "> 10 µM"}
{"COMPOUND": "COCC[N+](CCNC(=O)c1cccc2c(N)c3cccc(C)c3nc12)(CCOC)Cc1ccc([N+](=O)[O-])cc1", "TGI": "67.3 µM"}
{"COMPOUND": "O=C(CC1(O)C(=O)Nc2c(Cl)cccc21)c1ccccc1 (stereo not drawn)", "TGI": "> 100 µM"}
{"COMPOUND": "C[C@H](CCC(=O)O[C@@H]1CC[C@@]2(C)C(CC[C@H]3[C@@H]4CC[C@H]([C@H](C)CCc5nc6ccccc6[nH]5)[C@@]4(C)CC[C@@H]32)C1)[C@H]1CC[C@H]2[C@@H]3CCC4C[C@H](O)CC[C@]4(C)[C@H]3CC[C@]12C (stereo partly drawn)", "TGI": "> 100 µM"}
{"COMPOUND": "CN(C)c1ccc(/C=C(\\C#N)c2cc3ccccc3n2C)cc1", "TGI": "> 100 µM"}
{"COMPOUND": "CCOC(=O)c1ccc2c(c1)[n+](=O)c(C(=O)c1ccc3ccccc3c1)c(C(F)(F)F)n2[O-]", "TGI": "3.14 µM"}
{"COMPOUND": "COc1c(C(=O)/C(=N/Nc2ccccc2)C(C)=O)c(O)c(OC)c2occc12", "TGI": "> 100 µM"}
{"COMPOUND": "CN(C)C1(C(=O)O)CC1", "TGI": "> 100 µM"}
{"COMPOUND": "Cc1cc(C)nc(NS(=O)(=O)c2ccc(NC(=O)c3cccc4c(Nc5ccc(S(=O)(=O)Nc6nc(C)cc(C)n6)cc5)c5ccccc5nc34)cc2)n1", "TGI": "55.1 µM"}
{"COMPOUND": "SC[C@@H]1COC[C@H](CS)S1", "TGI": "> 100 µM"}
{"COMPOUND": "Cc1ccc(Cl)cc1Nc1nc(C(F)(F)F)ccc1C(=O)N/N=C/c1c(Cl)cccc1Cl", "TGI": "3.71 µM"}
{"COMPOUND": "C=CCCC(O)c1ccc(C(O)CCCCCCCCCCCC)o1 (stereo not drawn)", "TGI": "50.4 µM"}
{"COMPOUND": "Cn1c(N(CCO)CCO)cnc1[N+](=O)[O-]", "TGI": "> 100 µM"}
{"COMPOUND": "O=C1CSC(=S)N1c1ccc(F)cc1F", "TGI": "> 100 µM"}
{"COMPOUND": "COc1ccc2c(c1)CCc1cnn(C3OC(COC(C)=O)C(OC(C)=O)C(OC(C)=O)C3OC(C)=O)c1-2 (stereo not drawn)", "TGI": "> 100 µM"}

---

- Test system: NCI-H226 lung
- ASSAY_METHOD_TEXT: NCI tumour cell line growth inhibition, 48 h; in the data active means GI50 below about 0.43 µM; inactive means the rest
Outcomes: yes for active, no for inactive

{"COMPOUND": "COc1ccc(-c2cn(-c3ccc(Cl)cc3)c(=S)[nH]2)cc1OC", "CATEGORY_LABEL": "no"}
{"COMPOUND": "CCc1ccc(CCC(=O)Nc2ncc(Cc3cc(Cl)ccc3Cl)s2)o1", "CATEGORY_LABEL": "no"}
{"COMPOUND": "O=C(Nc1ncc(Cc2ccccc2)s1)c1ccc2c(c1)OCCO2", "CATEGORY_LABEL": "yes"}
{"COMPOUND": "Fc1ccc(CNc2c3ccccc3nc3ccccc23)cc1", "CATEGORY_LABEL": "no"}
{"COMPOUND": "CC1(C)CC(=O)C2=C(C1)NC(SSC1=C(C#N)C(c3ccc(Br)cc3)C3=C(CC(C)(C)CC3=O)N1)=C(C#N)C2c1ccc(Br)cc1 (stereo not given)", "CATEGORY_LABEL": "no"}

---

- Test system: NCI-H460 lung
- ASSAY_METHOD_TEXT: NCI tumour cell line growth inhibition, 48 h
Listing of recorded TGI by entry.

{"COMPOUND": "O=C(O)Cn1nnc2c(=O)[nH][nH]c(=O)c21", "TGI": "> 100 µM"}
{"COMPOUND": "COc1ccc(C(=O)/C(=N/Nc2ccccc2)c2ccc(OC)cc2)cc1", "TGI": "> 100 µM"}
{"COMPOUND": "CC(C)=CCC/C(C)=C/CC/C(C)=C/CC/C=C(\\C)CC/C=C(\\C)CCC1SC1(C)C (stereo not drawn)", "TGI": "> 100 µM"}
{"COMPOUND": "COc1ccc(-c2nc(N)c(C#N)c3c2CCSc2ccc(C)cc2-3)cc1OC", "TGI": "> 61.5 µM"}
{"COMPOUND": "CC1=C2C(=O)C3[C@@H](CCC4=CC(=O)CC[C@@]43C)C2CC[C@]12O[C@@H]1C[C@H](C)CN[C@H]1[C@H]2C (stereo partly drawn)", "TGI": "> 100 µM"}
{"COMPOUND": "CC(C)(C)c1ccc(-c2nc3ccccc3c(=O)o2)cc1", "TGI": "> 100 µM"}
{"COMPOUND": "COc1ccc(/C=C2\\N=C(c3ccccc3)N(c3cc(C(F)(F)F)ccc3Cl)C2=O)cc1OC", "TGI": "> 100 µM"}
{"COMPOUND": "COc1cc(C2c3cc4c(cc3OC3(O)COC(=O)C23)OCO4)cc(OC)c1OC (stereo not drawn)", "TGI": "> 100 µM"}

---

- System: RXF 393 renal
- ASSAY_METHOD_TEXT: NCI tumour cell line growth inhibition, 48 h
Form field: TGI (one value per entry).

{"COMPOUND": "C[C@]12CCC3[C@@H](C[C@H]4OC(=O)[C@@]35CCC(=O)C=C45)C1CCC2=O (some centres undefined)", "TGI": "> 100 µM"}
{"COMPOUND": "O=C1ON(Cc2ccccc2)C(c2ccccc2)N1c1ccccc1 (centres undefined)", "TGI": "> 100 µM"}
{"COMPOUND": "Nc1ccccc1/C=N\\Nc1ccccc1", "TGI": "> 100 µM"}
{"COMPOUND": "CC(C)=CCC[C@](C)(O)[C@H]1CC[C@]2(C)[C@@H]1[C@H](O)C[C@@H]1[C@@]3(C)CC[C@H](O[C@@H]4O[C@H](CO)[C@@H](O)[C@H](O)[C@H]4O)C(C)(C)[C@@H]3CC[C@]12C", "TGI": "32.2 µM"}

---

- System: MDA-N
- ASSAY_METHOD_TEXT: NCI tumour cell line growth inhibition, 48 h
PROPERTY_LABEL: TGI

{"MOLECULE": "COc1ccc(-n2nnc3c(C#N)c(-c4ccccc4)c(C)n3c2=O)cc1", "PROPERTY_LABEL": "TGI", "REPORTED_MEASUREMENT": "> 100 µM"}
{"MOLECULE": "NC(=O)NC(CC(=O)O)C(=O)O (stereo not given)", "PROPERTY_LABEL": "TGI", "REPORTED_MEASUREMENT": "> 100 µM"}
{"MOLECULE": "CC1CC(=O)N2CCCNC2=C1C#N (stereo not given)", "PROPERTY_LABEL": "TGI", "REPORTED_MEASUREMENT": "> 100 µM"}
{"MOLECULE": "COCC[N+](CCNC(=O)c1cccc2c(N)c3cccc(C)c3nc12)(CCOC)Cc1ccc([N+](=O)[O-])cc1", "PROPERTY_LABEL": "TGI", "REPORTED_MEASUREMENT": "> 100 µM"}
{"MOLECULE": "COc1ccc(-c2nc(N)c(C#N)c3c2CCSc2ccc(C)cc2-3)cc1OC", "PROPERTY_LABEL": "TGI", "REPORTED_MEASUREMENT": "> 45.5 µM"}
{"MOLECULE": "CSC(=S)N/N=C/c1ccccc1", "PROPERTY_LABEL": "TGI", "REPORTED_MEASUREMENT": "> 100 µM"}
{"MOLECULE": "CCOC(=O)N1CC2(C(=O)OC)C=CC1C(C(=O)OC)C2 (stereo not given)", "PROPERTY_LABEL": "TGI", "REPORTED_MEASUREMENT": "> 100 µM"}
{"MOLECULE": "CC(=O)c1ccc(N2CCN(c3c(O)c4c(c(O)c3Cl)C(=O)C=CC4=O)CC2)cc1", "PROPERTY_LABEL": "TGI", "REPORTED_MEASUREMENT": "10.8 µM"}
{"MOLECULE": "CN(C)CCCc1cccnc1", "PROPERTY_LABEL": "TGI", "REPORTED_MEASUREMENT": "> 100 µM"}
{"MOLECULE": "O=C1NCC2(CCN(Cc3ccccc3)CC2)N1", "PROPERTY_LABEL": "TGI", "REPORTED_MEASUREMENT": "> 100 µM"}
{"MOLECULE": "CC/C(Cl)=N\\OC(=O)Nc1ccccc1OC(F)(F)F", "PROPERTY_LABEL": "TGI", "REPORTED_MEASUREMENT": "22.9 µM"}
{"MOLECULE": "Cc1cc(=O)oc2c(CNC(C)C(=O)O)c(O)ccc12 (stereo not given)", "PROPERTY_LABEL": "TGI", "REPORTED_MEASUREMENT": "> 100 µM"}
{"MOLECULE": "CCOc1cc(C=O)c2c(ccc3ccc(OC)c(OC)c32)c1OC", "PROPERTY_LABEL": "TGI", "REPORTED_MEASUREMENT": "> 100 µM"}
{"MOLECULE": "CCCCOP(=O)(OCCCC)/C(C#N)=C/c1ccc(C)o1", "PROPERTY_LABEL": "TGI", "REPORTED_MEASUREMENT": "95.5 µM"}
{"MOLECULE": "O=C(Cn1c(C(=O)/C=C/c2ccco2)nc2ccccc21)c1ccc(Cl)cc1", "PROPERTY_LABEL": "TGI", "REPORTED_MEASUREMENT": "50.2 µM"}
{"MOLECULE": "Cc1c(C)c(S(=O)(=O)N(CCCCCN)OCCCN)c(C)c2c1OC(C)(C)CC2", "PROPERTY_LABEL": "TGI", "REPORTED_MEASUREMENT": "31.1 µM"}
{"MOLECULE": "NC(=O)c1nnn(Cc2cc(Cl)c(C(=O)c3ccc(Cl)cc3)c(Cl)c2)c1N", "PROPERTY_LABEL": "TGI", "REPORTED_MEASUREMENT": "> 46.9 µM"}
{"MOLECULE": "CC1(C)N(OC2CCCCO2)C(c2ccccc2)C(c2ccccc2)=[N+]1[O-] (stereo not given)", "PROPERTY_LABEL": "TGI", "REPORTED_MEASUREMENT": "> 100 µM"}
{"MOLECULE": "Cn1c(=O)cc(NNc2ccc(Br)cc2)[nH]c1=O", "PROPERTY_LABEL": "TGI", "REPORTED_MEASUREMENT": "28.6 µM"}
{"MOLECULE": "CC(C)(C)[Si](C)(C)OCC1OC(n2cc(F)c(=O)[nH]c2=O)CC1O[Si](C)(C)C(C)(C)C (stereo not given)", "PROPERTY_LABEL": "TGI", "REPORTED_MEASUREMENT": "18.4 µM"}
